Target: UniProt P23458
Sequence (P23458 whole entry): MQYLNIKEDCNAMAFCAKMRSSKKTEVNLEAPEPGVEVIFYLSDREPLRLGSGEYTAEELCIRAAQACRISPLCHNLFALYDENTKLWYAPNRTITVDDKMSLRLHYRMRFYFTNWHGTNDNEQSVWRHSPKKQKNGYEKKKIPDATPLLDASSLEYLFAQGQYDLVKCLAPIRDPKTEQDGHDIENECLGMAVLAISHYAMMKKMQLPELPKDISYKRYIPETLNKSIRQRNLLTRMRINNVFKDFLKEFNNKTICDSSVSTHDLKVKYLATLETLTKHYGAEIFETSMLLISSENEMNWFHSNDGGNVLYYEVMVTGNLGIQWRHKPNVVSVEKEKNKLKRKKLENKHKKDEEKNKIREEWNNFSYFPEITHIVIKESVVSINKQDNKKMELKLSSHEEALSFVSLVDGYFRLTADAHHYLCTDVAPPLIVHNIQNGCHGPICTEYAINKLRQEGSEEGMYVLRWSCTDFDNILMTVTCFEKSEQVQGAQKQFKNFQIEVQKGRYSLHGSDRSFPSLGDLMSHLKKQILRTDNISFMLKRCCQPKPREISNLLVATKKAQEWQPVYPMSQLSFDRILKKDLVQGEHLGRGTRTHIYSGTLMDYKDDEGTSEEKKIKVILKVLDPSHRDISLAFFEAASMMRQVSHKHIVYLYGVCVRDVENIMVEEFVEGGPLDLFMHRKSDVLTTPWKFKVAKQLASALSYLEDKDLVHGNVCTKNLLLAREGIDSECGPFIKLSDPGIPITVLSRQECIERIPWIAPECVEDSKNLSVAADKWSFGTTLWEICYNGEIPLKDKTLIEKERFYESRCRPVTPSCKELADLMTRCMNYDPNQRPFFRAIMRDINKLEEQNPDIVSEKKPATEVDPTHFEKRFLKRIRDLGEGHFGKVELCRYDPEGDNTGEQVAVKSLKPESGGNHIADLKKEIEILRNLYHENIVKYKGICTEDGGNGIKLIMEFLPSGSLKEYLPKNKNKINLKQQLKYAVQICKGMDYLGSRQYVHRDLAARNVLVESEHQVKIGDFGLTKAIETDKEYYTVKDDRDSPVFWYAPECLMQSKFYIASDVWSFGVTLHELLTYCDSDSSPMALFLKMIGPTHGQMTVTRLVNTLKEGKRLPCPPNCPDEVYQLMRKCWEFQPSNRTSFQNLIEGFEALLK
Procedure Details: Inhibition of JAK kinase activity, EZ Reader microfluidic phosphorylation of peptide substrate: JAK1
Assay type: biochemical
Experimental Parameters: JAK1 kinase 20 nM; highest final concentration 10 μM, 1:3 serial dilution, 8 points, duplicates
The reader will find reported IC50 values listed item by item below.

Some solved cases for reference:
CCS(=O)(=O)N1CC(CC#N)(n2cc(-c3ccnc(Nc4cnn(C)c4)n3)cn2)C1 [TDM-180728] ... 0.1 to 1 µM
Cn1cc(Nc2nccc(-c3cnn(C4CN(C(=O)CC(F)(F)F)C4)c3)n2)cn1 [TDM-180669] ... ≥ 10 µM
CCCS(=O)(=O)N1CC(CC#N)(n2ccc(-c3ccnc(Nc4cnn(C)c4)n3)n2)C1 [TDM-180916] ... 0.1 to 1 µM
CCC(=O)N1CC(n2cc(-c3ccnc(Nc4cnn(C)c4)n3)cn2)C1 [TDM-180646] ... ≥ 10 µM
CCCS(=O)(=O)N1CC(n2cc(-c3ccnc(Nc4cnn(C)c4)n3)cn2)C1 [TDM-180666] ... ≥ 10 µM

Returns the measured IC50 for the input compound. Input: Cn1cc(Nc2nccc(-c3cnn(C4CCN(C(=O)CO)CC4)c3)n2)cn1 [TDM-180681]
≥ 10 µM

Returns the measured IC50 for the input compound. Input: CCS(=O)(=O)N1CC(n2cc(-c3ccnc(Nc4cnn(C)c4)n3)cn2)C1 [TDM-180665]
1 to 10 µM

Returns the measured IC50 for the input compound. Input: Cn1cc(Nc2nccc(-c3ccn(C4(CC#N)CN(C(=O)[C@@H]5CC5(F)F)C4)c3)n2)cn1 [TDM-180937]
< 0.1 µM

----------
Target: Tyk2 (Homo sapiens, UniProt P29597)
Sequence (P29597 whole entry): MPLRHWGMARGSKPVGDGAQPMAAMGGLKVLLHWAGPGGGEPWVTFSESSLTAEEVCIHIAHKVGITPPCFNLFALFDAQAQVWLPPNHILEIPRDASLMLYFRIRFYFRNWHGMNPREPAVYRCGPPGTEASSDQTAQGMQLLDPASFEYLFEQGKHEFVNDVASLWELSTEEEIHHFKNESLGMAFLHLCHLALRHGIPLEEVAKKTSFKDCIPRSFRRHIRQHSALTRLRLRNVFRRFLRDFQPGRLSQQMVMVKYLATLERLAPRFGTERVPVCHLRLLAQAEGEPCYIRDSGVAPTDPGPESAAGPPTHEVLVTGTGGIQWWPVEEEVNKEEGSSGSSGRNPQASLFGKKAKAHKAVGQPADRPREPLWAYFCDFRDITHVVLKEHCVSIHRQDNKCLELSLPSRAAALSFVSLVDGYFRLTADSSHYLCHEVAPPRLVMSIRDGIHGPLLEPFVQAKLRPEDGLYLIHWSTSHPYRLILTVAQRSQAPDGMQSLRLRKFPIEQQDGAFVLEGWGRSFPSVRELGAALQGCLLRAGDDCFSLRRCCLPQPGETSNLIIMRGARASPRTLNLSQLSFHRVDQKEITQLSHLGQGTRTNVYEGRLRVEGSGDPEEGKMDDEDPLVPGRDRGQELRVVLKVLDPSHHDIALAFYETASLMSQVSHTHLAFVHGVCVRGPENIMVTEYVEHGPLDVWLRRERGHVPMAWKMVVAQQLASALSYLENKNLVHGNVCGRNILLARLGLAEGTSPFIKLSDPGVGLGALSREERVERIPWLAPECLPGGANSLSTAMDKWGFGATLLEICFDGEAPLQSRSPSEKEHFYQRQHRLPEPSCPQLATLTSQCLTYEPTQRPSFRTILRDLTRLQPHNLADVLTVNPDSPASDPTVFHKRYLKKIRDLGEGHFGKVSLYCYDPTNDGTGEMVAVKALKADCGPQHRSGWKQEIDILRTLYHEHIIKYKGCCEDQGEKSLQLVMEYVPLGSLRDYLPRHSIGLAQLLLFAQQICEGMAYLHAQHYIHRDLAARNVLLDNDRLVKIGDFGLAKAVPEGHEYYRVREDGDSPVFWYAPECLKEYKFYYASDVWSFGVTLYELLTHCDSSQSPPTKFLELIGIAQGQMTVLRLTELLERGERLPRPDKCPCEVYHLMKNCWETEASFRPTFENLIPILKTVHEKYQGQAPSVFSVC
Procedure Details: Inhibition of JAK kinase activity, EZ Reader microfluidic phosphorylation of peptide substrate: Tyk2
Assay type: biochemical
Experimental Parameters: Tyk2 kinase 1 nM; highest final concentration 10 μM, 1:3 serial dilution, 8 points, duplicates
Reported Endpoint: IC50

Some solved cases for reference:
Cn1cc(Nc2nccc(-c3cnn(C4CCN(C(=O)C5CC5)C4)c3)n2)cn1 (centres unmarked) ... ≥ 10 µM
Cn1cc(Nc2nccc(-c3ccn(C4(CC#N)CN(S(=O)(=O)CC(F)(F)F)C4)n3)n2)cn1 ... 1 to 10 µM
Cn1cc(Nc2cc(-c3cnn(C4CN(C(=O)C5CC5(F)F)C4)c3)ccn2)cn1 (centres unmarked) ... ≥ 10 µM
Cn1cc(Nc2nccc(-c3cnn(C4CCN(C(=O)C5CC5(F)F)CC4)c3)n2)cn1 (centres unmarked) ... ≥ 10 µM
COCC(=O)N1CC(CC#N)(n2ccc(-c3ccnc(Nc4cnn(C)c4)n3)c2)C1 ... 1 to 10 µM
Cn1cc(Nc2nccc(-c3cnn(C4(CC#N)CN(S(=O)(=O)CC(F)(F)F)C4)c3)n2)cn1 ... < 0.1 µM

Returns the measured IC50 for the input compound. Input: `CCOCCS(=O)(=O)N1CC(CC#N)(n2cc(-c3ccnc(Nc4cnn(C)c4)n3)cn2)C1`
0.1 to 1 µM

Returns the measured IC50 for the input compound. Input: `CCC(=O)N1CC(n2cc(-c3ccnc(Nc4cnn(C)c4)c3)cn2)C1`
≥ 10 µM

----------
Target: Tyk2 (Homo sapiens)
Procedure Details: Inhibition of JAK kinase activity, EZ Reader microfluidic phosphorylation of peptide substrate: Tyk2
Type: biochemical
Experimental Parameters: Tyk2 kinase 1 nM; highest final concentration 10 μM, 1:3 serial dilution, 8 points, duplicates
Reported Endpoint: IC50

Some solved cases for reference:
COCC(=O)N1CC(CC#N)(n2cc(-c3ccnc(Nc4cnn(C)c4)n3)cn2)C1 [TDM-180765] ... 1 to 10 µM
Cn1cc(Nc2nccc(-c3cnn(C4CN(C(=O)C5CC5)C4)c3)n2)cn1 [TDM-180667] ... ≥ 10 µM
CCC(=O)N1CCC(n2cc(-c3ccnc(Nc4cnn(C)c4)n3)cn2)C1 (stereo not shown) [TDM-180649] ... ≥ 10 µM
Cn1cc(Nc2nccc(-c3ccn(C4(CC#N)CN(C(=O)C5CC5)C4)c3)n2)cn1 [TDM-180772] ... 0.1 to 1 µM
Cn1cc(Nc2nccc(-c3cnn(C4CCN(C(=O)CO)CC4)c3)n2)cn1 [TDM-180681] ... ≥ 10 µM

Returns the measured IC50 for the input compound. Input: Cn1cc(Nc2nccc(-c3cnn(C4(CC#N)CN(C(=O)CO)C4)c3)n2)cn1 [TDM-180810]
1 to 10 µM

Returns the measured IC50 for the input compound. Input: Cn1cc(Nc2nccc(-c3ccn(C4(CC#N)CN(C(=O)CC(F)(F)F)C4)n3)n2)cn1 [TDM-180860]
0.1 to 1 µM
